From: patent US9376420B2

# STUDY SYSTEM: human LXRβ (Homo sapiens, UniProt P55055)
# Sequence (P55055 222-460 limits assumed): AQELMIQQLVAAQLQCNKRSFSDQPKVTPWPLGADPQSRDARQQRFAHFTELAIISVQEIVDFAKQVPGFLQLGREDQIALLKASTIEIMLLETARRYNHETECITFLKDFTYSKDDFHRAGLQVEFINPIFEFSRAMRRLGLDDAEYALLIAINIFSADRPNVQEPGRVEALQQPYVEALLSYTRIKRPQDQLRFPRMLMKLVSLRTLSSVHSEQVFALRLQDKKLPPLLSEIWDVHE
# PROCEDURE TEXT: Assay for Transcriptional Activity of LXRβ (GAL4-hLXRβ LBD luciferase reporter, transient transfection)
# EXPERIMENTAL CONDITIONS: increase of transcriptional activity of LXRβ; HEK293 cells transfected with pFA-hLXRβ/GAL4 and pUAS; 24 hours; average of three independent tests
ENDPOINT NAME: EC50 (nM)

Look over these answered cases.
COMPOUND: Oc1cccc(-c2cccc(C3CC(C(F)(F)C(F)(F)F)=NN3c3ccccc3Cl)c2)c1 (stereo not shown)
ENDPOINT NAME: EC50
QUANTITATIVE READOUT: 4150

COMPOUND: CS(=O)(=O)c1ccc(-c2cccc(C3CC(C(F)(F)C(F)(F)F)=NN3c3ccc(Cl)cc3F)c2)cc1 (stereo not shown)
ENDPOINT NAME: EC50
QUANTITATIVE READOUT: 746

COMPOUND: COc1ccc(-c2ccc(C3CC(C(O)(C(F)(F)F)C(F)(F)F)=NN3c3ccc(F)cc3F)cc2)cn1 (stereo not shown)
ENDPOINT NAME: EC50
QUANTITATIVE READOUT: 821

COMPOUND: CS(=O)(=O)c1ccc(-c2ccc(C3CC(C(O)(C(F)(F)F)C(F)(F)F)=NN3c3ccccc3Cl)cc2)c(C(F)(F)F)c1 (stereo not shown)
ENDPOINT NAME: EC50
QUANTITATIVE READOUT: 320

COMPOUND: CSc1cccc(-c2ccc(C3CC(C(O)(C(F)(F)F)C(F)(F)F)=NN3c3ccc(F)cc3F)cc2)c1 (stereo not shown)
ENDPOINT NAME: EC50
QUANTITATIVE READOUT: 666

(P) OC(C1=NN(c2ccc(F)cc2F)C(c2ccc(-c3ccc(C(F)(F)F)nc3)cc2)C1)(C(F)(F)F)C(F)(F)F (stereo not shown)
(Q) CSc1ccc(-c2cccc(C3CC(C(F)(F)C(F)(F)F)=NN3c3ccccc3Cl)c2)cc1 (stereo not shown)
-- ask Please tell me which of the two, P or Q , has the higher reported EC50 value. Give the chosen item's label as your response.
-- reply Q
(Q: 6310 nM, P: 890 nM)

---

# STUDY SYSTEM: human LXRβ (Homo sapiens)
# Construct: expressed in transfected cells; host or cells: HEK293 cells (ATCC CRL-1573), transient transfection with pFA-hLXRβ/GAL4 and pUAS
# PROCEDURE TEXT: Assay for Transcriptional Activity of LXRβ (GAL4-hLXRβ LBD luciferase reporter, transient transfection)
# Assay type: cell-based
# EXPERIMENTAL CONDITIONS: fold value in comparison with the control (DMSO-treated group); HEK293 cells transfected with pFA-hLXRβ/GAL4 and pUAS; 24 hours
ENDPOINT NAME: Emax (fold)

Look over these answered cases.
COMPOUND: C[S+]([O-])c1cccc(-c2ccc(C3CC(C(O)(C(F)(F)F)C(F)(F)F)=NN3c3ccccc3Cl)c(F)c2)c1 (centres unmarked) [Example 345]
Emax [fold]: 42

COMPOUND: CC(=O)c1ccc(-c2ccc(C3CC(C(O)(C(F)(F)F)C(F)(F)F)=NN3c3ccccc3Cl)c(F)c2)cc1 (centres unmarked) [Example 341]
Emax [fold]: 112

COMPOUND: CSc1ccc(-c2ccc(C3CC(C(O)(C(F)(F)F)C(F)(F)F)=NN3c3ccccc3Cl)cc2)cn1 (centres unmarked) [Example 266]
Emax [fold]: 80

COMPOUND: COc1ccc(-c2ccc(C3CC(C(O)(C(F)(F)F)C(F)(F)F)=NN3c3ccccc3Cl)cc2F)cc1 (centres unmarked) [Example 363]
Emax [fold]: 50

COMPOUND: COc1ccc(-c2ccc(C3CC(C(O)(C(F)(F)F)C(F)(F)F)=NN3c3ccccc3Cl)c(F)c2)cn1 (centres unmarked) [Example 343]
Emax [fold]: 81

(A) CN(CCO)S(=O)(=O)c1cccc(-c2ccc(C3CC(C(O)(C(F)(F)F)C(F)(F)F)=NN3c3ccccc3Cl)cc2)c1 (centres unmarked) [Example 283]
(B) CS(=O)(=O)c1cccc(-c2cccc(C3CC(C(F)(F)C(F)(F)F)=NN3c3ccccc3Cl)n2)c1 (centres unmarked) [Example 157]
(C) CN(CCCS(=O)(=O)c1cccc(-c2cccc(N3N=C(C(F)(F)C(F)(F)F)CC3c3ccc(F)cc3F)c2)c1)C(=O)OC(C)(C)C (centres unmarked) [Example 211]
-- ask Task for the reader: rank each entry by its Emax, from the minimum upward. Put the labels in the order asked and list them.
-- reply C, A, B
(C: 29 fold, A: 51 fold, B: 96 fold)

(A) CS(=O)(=O)c1ccc(-c2cccc(C3CC(C(F)(F)C(F)(F)F)=NN3c3ccc(F)cc3F)c2)cc1 (centres unmarked) [Example 51]
(B) CS(=O)(=O)N1CC=C(c2ccc(C3CC(C(O)(C(F)(F)F)C(F)(F)F)=NN3c3ccccc3Cl)cc2)CC1 (centres unmarked) [Example 298]
-- ask Please tell me which of the two, A or B , has the higher reported Emax value. Give the chosen item's label as your response.
-- reply B

(I) CSc1ccc(-c2cccc(C3CC(C(F)(F)C(F)(F)F)=NN3c3ccc(F)cc3F)c2)cn1 (centres unmarked) [Example 77]
(II) CSc1ccc(-c2ccnc(C3CC(C(F)(F)C(F)(F)F)=NN3c3ccc(F)cc3F)c2)cc1 (centres unmarked) [Example 173]
-- ask Please tell me which of the two, I or II , has the higher reported Emax value. Give the chosen item's label as your response.
-- reply II
